Each entry below lists one item and its recorded pKi value.
Target: Botulinum neurotoxin type A (Clostridium botulinum)
Sequence (P0DPI0 2-448 limits assumed): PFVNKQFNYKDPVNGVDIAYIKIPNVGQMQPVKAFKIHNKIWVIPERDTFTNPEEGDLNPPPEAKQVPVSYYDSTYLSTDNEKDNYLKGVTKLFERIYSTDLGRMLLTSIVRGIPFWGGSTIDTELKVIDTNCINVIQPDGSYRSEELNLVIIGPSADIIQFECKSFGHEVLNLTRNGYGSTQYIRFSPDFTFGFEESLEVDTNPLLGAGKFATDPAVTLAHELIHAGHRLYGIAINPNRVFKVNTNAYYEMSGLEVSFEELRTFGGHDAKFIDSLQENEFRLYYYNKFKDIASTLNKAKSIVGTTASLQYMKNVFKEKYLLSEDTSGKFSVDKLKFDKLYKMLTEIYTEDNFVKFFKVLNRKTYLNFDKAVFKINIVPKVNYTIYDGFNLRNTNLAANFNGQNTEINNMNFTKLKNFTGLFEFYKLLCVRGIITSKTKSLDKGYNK
Assay: Inhibition of Clostridium botulinum BoNT/A light chain assessed as inhibition of SNAP-25 (187-203) substrate hydrolysis by RP-HPLC-based assay in presence of excess Zn(II)
API: returns pKi as number; meaning -log10 of concentration in mol/L.

Reference set, count: 3
SMILES_NOTATION	NUMERIC_READOUT
CCCCNC(=O)c1cc(NC(=O)c2ccc(C(=O)Nc3cc(C(=O)NCCCC)cc(C4=NCCN4)c3)cc2)cc(C2=NCCN2)c1	5.07
O=C(NCCCNc1ccnc2cc(Cl)ccc12)c1cc(NC(=O)c2ccc(C(=O)Nc3cc(C(=O)NCCCNc4ccnc5cc(Cl)ccc45)cc(C4=NCCN4)c3)cc2)cc(C2=NCCN2)c1	6.24
O=C(NCCNc1ccnc2cc(Cl)ccc12)c1cc(NC(=O)c2ccc(C(=O)Nc3cc(C(=O)NCCNc4ccnc5cc(Cl)ccc45)cc(C4=NCCN4)c3)cc2)cc(C2=NCCN2)c1	5.67

Give pKi for this entry on Botulinum neurotoxin type A (Clostridium botulinum): O=C(NCCCCNc1ccnc2cc(Cl)ccc12)c1cc(NC(=O)c2ccc(C(=O)Nc3cc(C(=O)NCCCCNc4ccnc5cc(Cl)ccc45)cc(C4=NCCN4)c3)cc2)cc(C2=NCCN2)c1 6.05
